FYI, the data here is from patent US20250032625A1.

biological target: TEAD1 in NCI-H226 cells (Homo sapiens (Human)); test: TEAD degradation in NCI-H226 cell line (immunofluorescence); type: cell-based; conditions: 16 h incubation, read-out: DC50 NCI-H226 16 h
Sequence (P28347 whole entry): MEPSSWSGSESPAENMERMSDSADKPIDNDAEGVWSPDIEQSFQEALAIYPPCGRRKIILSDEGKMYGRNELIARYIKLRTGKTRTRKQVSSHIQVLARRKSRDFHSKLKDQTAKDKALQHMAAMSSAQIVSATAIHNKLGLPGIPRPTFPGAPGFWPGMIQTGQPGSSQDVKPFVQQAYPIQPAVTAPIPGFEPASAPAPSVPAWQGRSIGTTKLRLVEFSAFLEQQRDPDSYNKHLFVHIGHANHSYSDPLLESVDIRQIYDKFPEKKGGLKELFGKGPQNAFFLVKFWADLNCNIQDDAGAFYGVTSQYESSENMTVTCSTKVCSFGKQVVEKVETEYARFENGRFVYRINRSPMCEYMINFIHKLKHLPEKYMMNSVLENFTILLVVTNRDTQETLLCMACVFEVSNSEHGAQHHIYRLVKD
valueKind: DC50 (nM)
// return numeric value only (unit: nM, not printed)

# example entries with known answers
CC(=O)O[C@@H]1C[C@@H](C(=O)N[C@@H](C)c2ccc(-c3scnc3C)cc2)N(C(=O)[C@@H](NC(=O)CCCCCC(=O)NCCOCCOCCNC(=O)c2ccc3c(c2)c2cn(C)nc2n3-c2ccc(C(F)(F)F)cc2)C(C)(C)C)C1 [Compound 25]    1000
Cc1ncsc1-c1ccc([C@H](C)NC(=O)[C@@H]2C[C@@H](O)CN2C(=O)[C@@H](NC(=O)CCCCCc2cn(CCCCCCCNC(=O)c3ccc4c(c3)c3cn(C)nc3n4-c3ccc(C(F)(F)F)cc3)nn2)C(C)(C)C)cc1 [Compound 29]    200
Cc1ncsc1-c1ccc([C@H](C)NC(=O)[C@@H]2C[C@@H](O)CN2C(=O)[C@@H](NC(=O)CCCCCC(=O)NCCOCCOCCNC(=O)c2ccc3c(c2)c2cn(C)nc2n3-c2ccc(C(F)(F)F)cc2)C(C)(C)C)cc1 [Compound 24]    1000

Here's the next entry for you.
### Prompt Suppose we examine the compound Cc1ncsc1-c1ccc(CNC(=O)[C@@H]2C[C@@H](O)CN2C(=O)[C@@H](NC(=O)CCCCCC(=O)NCCOCCOCCNC(=O)c2ccc3c(c2)c2cn(C)nc2n3-c2ccc(C(F)(F)F)cc2)C(C)(C)C)cc1 [Compound 4] ; what DC50 value has been reported?
### Response 700
